procedure_details: Intravesical suramin in dogs: bladder contents, bladder wall and plasma concentrations
Assay type: in vivo
test_conditions: beagle, dog, bladder wall tissue, other: intravesical, 6 mg/ml, at approximately 2 mm depth; read-out: bladder wall tissue concentration
measured_parameter: concentration at 120 min

molecule | result
Cc1ccc(C(=O)Nc2ccc(S(=O)(=O)O)c3cc(S(=O)(=O)O)cc(S(=O)(=O)O)c23)cc1NC(=O)c1cccc(NC(=O)Nc2cccc(C(=O)Nc3cc(C(=O)Nc4ccc(S(=O)(=O)O)c5cc(S(=O)(=O)O)cc(S(=O)(=O)O)c45)ccc3C)c2)c1 | ~3000 ng/g

----------
procedure_details: Intravesical suramin in dogs: bladder contents, bladder wall and plasma concentrations
Type: in vivo
test_conditions: beagle, dog, bladder wall tissue, other: intravesical, 6 mg/ml, summary of Example 13; read-out: concentrations in the targeted tissues after local administration
measured_parameter: concentration at 120 min

compound | measured_parameter | result
Cc1ccc(C(=O)Nc2ccc(S(=O)(=O)O)c3cc(S(=O)(=O)O)cc(S(=O)(=O)O)c23)cc1NC(=O)c1cccc(NC(=O)Nc2cccc(C(=O)Nc3cc(C(=O)Nc4ccc(S(=O)(=O)O)c5cc(S(=O)(=O)O)cc(S(=O)(=O)O)c45)ccc3C)c2)c1 [Suramin, suramin] | concentration at 120 min | 5000 to 100000 ng/g

----------
procedure_details: Suramin plasma pharmacokinetics in beagle dogs
Assay type: in vivo
test_conditions: beagle, dog, plasma, 6.75 mg/kg iv infusion over 30 minutes, read-out: terminal half-life (converted)

molecule | half-life (days)
Cc1ccc(C(=O)Nc2ccc(S(=O)(=O)O)c3cc(S(=O)(=O)O)cc(S(=O)(=O)O)c23)cc1NC(=O)c1cccc(NC(=O)Nc2cccc(C(=O)Nc3cc(C(=O)Nc4ccc(S(=O)(=O)O)c5cc(S(=O)(=O)O)cc(S(=O)(=O)O)c45)ccc3C)c2)c1 | 13

----------
Tested on: RCC54
procedure_details: 5-Fluorouracil inhibition of BrdU incorporation (ELISA), RCC54
Assay type: cell-based
test_conditions: RCC54, With 100 μg/ml PPS
pIC50: −log10 of the molar value.
measured_parameter: pIC50

molecule | quantitative_result
O=c1[nH]cc(F)c(=O)[nH]1 | 5.45

Reference source: patent US20050282893A1
